target_under_test: T1, IL-18R on HEK-Blue IL18R reporter cells (UniProt Q13478 19-541; O95256 20-599)
T1 sequence (looked up) 1: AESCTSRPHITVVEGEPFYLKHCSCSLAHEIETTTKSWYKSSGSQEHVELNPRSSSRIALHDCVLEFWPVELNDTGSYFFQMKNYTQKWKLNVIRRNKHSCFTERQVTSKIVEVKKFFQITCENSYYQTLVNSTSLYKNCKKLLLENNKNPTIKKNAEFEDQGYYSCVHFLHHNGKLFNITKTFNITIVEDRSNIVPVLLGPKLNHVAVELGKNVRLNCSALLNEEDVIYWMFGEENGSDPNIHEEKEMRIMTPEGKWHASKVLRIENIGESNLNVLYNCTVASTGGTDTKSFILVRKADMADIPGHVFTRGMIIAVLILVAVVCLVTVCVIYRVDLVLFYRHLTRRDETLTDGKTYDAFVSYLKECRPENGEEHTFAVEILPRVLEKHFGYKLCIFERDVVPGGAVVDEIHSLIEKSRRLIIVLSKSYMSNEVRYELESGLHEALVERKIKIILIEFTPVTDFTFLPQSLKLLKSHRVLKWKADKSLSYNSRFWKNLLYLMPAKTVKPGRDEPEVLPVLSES
T1 sequence (looked up) 2: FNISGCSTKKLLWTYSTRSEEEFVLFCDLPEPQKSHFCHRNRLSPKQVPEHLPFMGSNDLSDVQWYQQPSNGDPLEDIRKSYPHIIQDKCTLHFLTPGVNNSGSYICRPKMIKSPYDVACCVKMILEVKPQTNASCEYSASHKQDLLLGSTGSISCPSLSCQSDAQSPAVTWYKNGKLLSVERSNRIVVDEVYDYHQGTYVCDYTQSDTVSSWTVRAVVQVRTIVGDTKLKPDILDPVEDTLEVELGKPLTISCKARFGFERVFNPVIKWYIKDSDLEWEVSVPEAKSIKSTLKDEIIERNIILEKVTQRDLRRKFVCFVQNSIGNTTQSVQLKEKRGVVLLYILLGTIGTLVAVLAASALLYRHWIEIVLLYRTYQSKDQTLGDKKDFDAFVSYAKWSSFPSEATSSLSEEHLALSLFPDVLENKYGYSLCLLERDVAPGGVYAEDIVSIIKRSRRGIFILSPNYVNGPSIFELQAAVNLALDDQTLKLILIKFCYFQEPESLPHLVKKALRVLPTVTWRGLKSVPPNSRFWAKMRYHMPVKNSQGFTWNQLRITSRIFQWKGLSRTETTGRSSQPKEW
assay_explanation: cell-based or functional assay
property_label: EC50, HEK-Blue IL18R SEAP reporter (pM)

binder: IL-18 polypeptide SEQ ID NO: 34 (E06K, K53A, S55A) (ligand) YFGKLKSKLSVIRNLNDQVLFIDQGNRPLFEDMTDSDCRDNAPRTIFIISMYADAQPRGMAVTISVKCEKISTLSCENKIISFKEMNPPDNIKDTKSDIIFFQRSVPGHDNKMQFESSSYEGYFLACEKERDLFKLILKKEDELGDRSIMFTVQNED
unit_text: pM
readout_number: 272
//
binder: IL-18 polypeptide C161 (ligand) YFGKLESRLSIIRNLNDQVLFIDQGNRPLFEDMTDSDARDNAPRTIFIISMYKDSQPRGMAVTISVKCEKISTLSAENKIISFKEMNPPDNIKDTKSDIIFFERSVPGHDNKMQFESSSYEGYFLAAEKERDLFKLILKKEDELGDRSIMFTVQNED
unit_text: pM
readout_number: 2.01
//
binder: IL-18 polypeptide C165 (ligand) YFGKLESKLSIIRNLNDQVLFIDQGNRPLFEDMTDSDARDNAPRTIFIISMYKDRQPRGMAVTISVKCEKISTLSAENKIISFKEMNPPDNIKDTKSDIIFFQRSVPGHDNKMQFESSSYEGYFLAAEKERDLFKLILKKEDELGDRSIMFTVQNED
unit_text: pM
readout_number: 1.91
